This collection of values is drawn from patent US20090081197A1.

# target-of-assay: T1, MC1-R of B-16 mouse melanoma cells (mouse, UniProt Q01727 1-315)
# T1 construct: whole, on cells; also called B16-F10 (MC1-R)
# T1 sequence (Q01727 whole entry): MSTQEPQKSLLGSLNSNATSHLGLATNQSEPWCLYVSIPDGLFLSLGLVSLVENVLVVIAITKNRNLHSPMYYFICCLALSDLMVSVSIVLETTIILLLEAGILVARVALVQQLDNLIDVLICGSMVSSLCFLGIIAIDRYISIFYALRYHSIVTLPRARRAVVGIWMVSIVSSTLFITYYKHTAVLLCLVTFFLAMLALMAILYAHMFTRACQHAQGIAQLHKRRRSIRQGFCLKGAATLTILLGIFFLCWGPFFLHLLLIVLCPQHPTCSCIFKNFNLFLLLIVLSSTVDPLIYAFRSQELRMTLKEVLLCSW
# test: radioligand competition, [I125]-NDP-α-MSH, B-16 membranes
Positions of bridges follow the written chain, without caps; N, C: chain ends. Non-standard residues stand in square brackets, D forms with d. 2Nal = N[C@@H](Cc1ccc2ccccc2c1)C(=O)O; d2Nal = N[C@H](Cc1ccc2ccccc2c1)C(=O)O
experimental-endpoint: Ki
Enter the number, and then the unit.

# binder Ac-DW[d2Nal]R[2Nal]K-NHMe (lactam 1-6, also called Compound No. 35) [Ac-cyclo(Asp-Trp-D-Nal 2-Arg-Nal 2-Lys)-NH-CH3] ; its Ki = 643 nM
